# TARGET ENTITY: T1, membrane-associated human IGF-1R (plasma membranes of BHK cells stably transfected with the human IGF-IR … (human, UniProt P08069 31-1367))
# T1 construct: whole, on cells; Receptor in purified plasma membranes, not on intact cells; also called hIGF1R; insulin-like growth factor 1 receptor
# T1 sequence (P08069 31-1367): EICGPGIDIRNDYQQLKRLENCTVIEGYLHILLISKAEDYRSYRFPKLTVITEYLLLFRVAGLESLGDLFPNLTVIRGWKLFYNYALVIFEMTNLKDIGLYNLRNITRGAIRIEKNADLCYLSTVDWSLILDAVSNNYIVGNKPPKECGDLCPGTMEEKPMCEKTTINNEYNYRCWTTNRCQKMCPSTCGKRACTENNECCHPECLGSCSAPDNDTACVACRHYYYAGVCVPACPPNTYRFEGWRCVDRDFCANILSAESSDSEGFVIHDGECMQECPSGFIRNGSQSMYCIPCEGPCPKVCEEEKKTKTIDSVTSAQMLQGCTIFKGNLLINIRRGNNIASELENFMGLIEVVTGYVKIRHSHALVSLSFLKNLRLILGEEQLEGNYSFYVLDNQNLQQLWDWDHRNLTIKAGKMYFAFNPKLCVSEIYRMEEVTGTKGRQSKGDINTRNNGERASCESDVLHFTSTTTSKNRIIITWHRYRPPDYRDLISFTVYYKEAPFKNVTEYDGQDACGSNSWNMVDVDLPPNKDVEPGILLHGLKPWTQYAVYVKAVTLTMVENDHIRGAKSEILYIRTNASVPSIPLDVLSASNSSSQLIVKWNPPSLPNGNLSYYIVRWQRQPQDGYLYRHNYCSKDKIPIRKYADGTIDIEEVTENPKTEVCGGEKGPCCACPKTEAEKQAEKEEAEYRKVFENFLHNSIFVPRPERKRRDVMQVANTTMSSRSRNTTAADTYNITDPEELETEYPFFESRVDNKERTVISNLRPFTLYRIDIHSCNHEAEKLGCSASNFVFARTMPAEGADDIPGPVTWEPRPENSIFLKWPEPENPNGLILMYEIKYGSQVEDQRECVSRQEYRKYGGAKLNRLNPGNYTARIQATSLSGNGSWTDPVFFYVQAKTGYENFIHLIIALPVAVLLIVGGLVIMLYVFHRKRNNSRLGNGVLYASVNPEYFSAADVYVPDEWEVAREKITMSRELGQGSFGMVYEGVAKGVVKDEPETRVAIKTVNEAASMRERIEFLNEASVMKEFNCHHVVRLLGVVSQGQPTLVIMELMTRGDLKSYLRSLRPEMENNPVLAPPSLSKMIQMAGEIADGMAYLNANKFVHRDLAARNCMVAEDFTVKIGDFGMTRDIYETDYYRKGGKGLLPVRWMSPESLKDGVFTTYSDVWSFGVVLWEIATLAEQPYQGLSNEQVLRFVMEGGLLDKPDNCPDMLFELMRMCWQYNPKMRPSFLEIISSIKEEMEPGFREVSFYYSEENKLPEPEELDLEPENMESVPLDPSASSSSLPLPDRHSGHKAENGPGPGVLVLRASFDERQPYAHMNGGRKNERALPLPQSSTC
# MEASUREMENT PROTOCOL: SPA competition vs [125I-Tyr31]-human IGF-1, membrane hIGF-1R, 0.1% HSA

| BINDER | relative binding affinity (% rel to HI) |
| --- | --- |
| A14E, A22K(N(eps)tetradecanedioyl-4xgGlu), B3Q, B27E, B28E, B29R, desB30 human insulin (ligand, not fully specified; Lys A22 acylated on N(eps) with tetradecanedioyl-4xgGlu, also called Ex. No. 9) chain 1: GIVEQCCTSICSLEQLENYCNK chain 2: FVQQHLCGSHLVEALYLVCGERGFFYEER | 29.5 % rel to HI |
| A8R, A22K(N(eps)tetradecanedioyl-4xgGlu), B3E, B26E, B28E, B29R, desB30 human insulin (ligand, not fully specified; Lys A22 acylated on N(eps) with tetradecanedioyl-4xgGlu, Two-chain acylated insulin analogue; also called Ex. No. 23) chain 1: GIVEQCCRSICSLYQLENYCNK chain 2: FVEQHLCGSHLVEALYLVCGERGFFETER | 5.7 % rel to HI |
| A8R, A22K(N(eps)tetradecanedioyl-4xgGlu), B3E, B27E, B28R, desB29, desB30 human insulin (ligand, not fully specified; Lys A22 acylated on N(eps) with tetradecanedioyl-4xgGlu, Two-chain acylated insulin analogue; also called Ex. No. 17) chain 1: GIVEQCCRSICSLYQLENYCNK chain 2: FVEQHLCGSHLVEALYLVCGERGFFYER | 32.9 % rel to HI |
| A14E, A22K(N(eps)tetradecanedioyl-gGlu-2xOEG), B3E, B27E, B28E, B29R, desB30 human insulin (ligand, not fully specified; Lys A22 acylated on N(eps) with tetradecanedioyl-gGlu-2xOEG, Two-chain acylated insulin analogue; also called Ex. No. 2) chain 1: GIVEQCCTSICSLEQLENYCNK chain 2: FVEQHLCGSHLVEALYLVCGERGFFYEER | 36.6 % rel to HI |
| A14E, A22K(N(eps)tetradecanedioyl-4xgGlu), B3Q, B28D, B29R, desB30 human insulin (ligand, not fully specified; Lys A22 acylated on N(eps) with tetradecanedioyl-4xgGlu, also called Ex. No. 8) chain 1: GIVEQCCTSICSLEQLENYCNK chain 2: FVQQHLCGSHLVEALYLVCGERGFFYTDR | 42 % rel to HI |
| A8R, A22K(N(eps)tetradecanedioyl-4xgGlu), B3E, B27E, B28E, B29R, desB30 human insulin (ligand, not fully specified; Lys A22 acylated on N(eps) with tetradecanedioyl-4xgGlu, Two-chain acylated insulin analogue; also called Ex. No. 24) chain 1: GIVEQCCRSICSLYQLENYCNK chain 2: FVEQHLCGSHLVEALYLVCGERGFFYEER | 24 % rel to HI |
| A8R, A22K(N(eps)tetradecanedioyl-4xgGlu), B3E, B26E, B29R, desB30 human insulin (ligand, not fully specified; Lys A22 acylated on N(eps) with tetradecanedioyl-4xgGlu, Two-chain acylated insulin analogue; also called Ex. No. 15) chain 1: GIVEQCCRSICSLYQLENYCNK chain 2: FVEQHLCGSHLVEALYLVCGERGFFETPR | 10.8 % rel to HI |
| A14E, A22K(N(eps)hexadecanedioyl-4xgGlu), B3E, B27E, B28E, B29R, desB30 human insulin (ligand, not fully specified; Lys A22 acylated on N(eps) with hexadecanedioyl-4xgGlu, Two-chain acylated insulin analogue; also called Ex. No. 27) chain 1: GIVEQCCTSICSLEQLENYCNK chain 2: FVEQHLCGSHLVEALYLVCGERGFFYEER | 14.3 % rel to HI |
| A14E, A22K(N(eps)tetradecanedioyl-4xgGlu), B3E, B27E, B28E, B29R, desB30 human insulin (ligand, not fully specified; Lys A22 acylated on N(eps) with tetradecanedioyl-4xgGlu, Two-chain acylated insulin analogue; also called Ex. No. 4) chain 1: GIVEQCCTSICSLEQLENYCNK chain 2: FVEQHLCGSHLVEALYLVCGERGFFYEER | 28.6 % rel to HI |
| A14E, A22K(N(eps)hexadecanedioyl-gGlu-2xOEG), B3E, B27E, B28E, B29R, desB30 human insulin (ligand, not fully specified; Lys A22 acylated on N(eps) with hexadecanedioyl-gGlu-2xOEG, Two-chain acylated insulin analogue; also called Ex. No. 26) chain 1: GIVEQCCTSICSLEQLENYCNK chain 2: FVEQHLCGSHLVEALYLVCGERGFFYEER | 28.7 % rel to HI |
| A8R, A22K(N(eps)tetradecanedioyl-4xgGlu), B3E, B26E, B27P, B28R, desB29, desB30 human insulin (ligand, not fully specified; Lys A22 acylated on N(eps) with tetradecanedioyl-4xgGlu, also called Ex. No. 16) chain 1: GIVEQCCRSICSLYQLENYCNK chain 2: FVEQHLCGSHLVEALYLVCGERGFFEPR | 61.8 % rel to HI |
| A8R, A22K(N(eps)tetradecanedioyl-4xgGlu), B3E, B26E, B27E, B28R, desB29, desB30 human insulin (ligand, not fully specified; Lys A22 acylated on N(eps) with tetradecanedioyl-4xgGlu, Two-chain acylated insulin analogue; also called Ex. No. 19) chain 1: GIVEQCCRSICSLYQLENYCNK chain 2: FVEQHLCGSHLVEALYLVCGERGFFEER | 22.6 % rel to HI |
